Test: Pharmacokinetic studies of certain compounds in female Balb/c mice (Example 5)
Format: in vivo
Conditions: female, Balb/c, mouse, plasma, iv, 1 mg/kg, I-3 IV 1 mg/kg, 0.5 hr, read-out: Plasma concentration Mean
Metric name: concentration at 0.5 h (µg/mL)

>>> df
                                   compound  value_reported
0  CC(C)Cc1sc(Nc2ncc(-c3cccs3)cc2C(=O)O)nc1C1CCCCC1 [Compound I-3]           0.297

====

Assay: Pharmacokinetic studies of certain compounds in female Balb/c mice (Example 5)
Format: in vivo
Details: female, Balb/c, mouse, plasma, po, 50 mg/kg, I-8 PO 50 mg/kg, 0.25 hr, read-out: Plasma concentration Individual
Metric name: concentration at 0.25 h (ng/mL)

In [3]: df
Out[3]:
                               entry_smiles  value_unit  value_reported
0  CC(C)Cc1sc(Nc2ncc(-c3cccs3)cc2C(=O)O)nc1C1=CCCC1       ng/mL            1220

====

Experiment: Pharmacokinetic studies of certain compounds in female Balb/c mice (Example 5)
Assay type: in vivo
Conditions: mouse, plasma, I-2 PO 30 mg/kg
Metric name: AUC(0-t) (ng·h/mL)

>>> print(df.to_string())
                                   compound  value_reported
0  CC(C)Cc1sc(Nc2ncc(-c3cccs3)cc2C(=O)O)nc1C1=CCCCC1 [Compound I-2]           12500

====

Assay: Pharmacokinetic studies of certain compounds in female Balb/c mice (Example 5)
Assay type: in vivo
Settings: mouse, plasma, I-2 PO 100 mg/kg
Metric name: AUC(0-inf) (ng·h/mL)

>>> print(df.to_string())
                                   compound  metric_name  value_reported
0  CC(C)Cc1sc(Nc2ncc(-c3cccs3)cc2C(=O)O)nc1C1=CCCCC1 [Compound I-2]   AUC(0-inf)           27200

====

Assay: Pharmacokinetic study of I-11 in female BALB/c mice (Example 4)
Format: in vivo, Balb/c mouse
Settings: female, BALB/c, mouse, plasma, po, 100 mg/kg, PO 100 mg/kg, 1 hr, read-out: Plasma concentration Mean
Metric name: concentration at 1 hr (ng/mL)

>>> df
                                   compound  value_reported
0  CC(C)Cc1sc(Nc2ncc(-c3cccs3)cc2C(=O)O)nc1C(C)(C)C [Compound I-11]            7530

====

Assay: Pharmacokinetic study of I-11 in female BALB/c mice (Example 4)
Type: in vivo, Balb/c mouse
Conditions: female, BALB/c, mouse, plasma, po, 100 mg/kg, PO 100 mg/kg, 0.083 hr, read-out: Plasma concentration Individual
Metric name: concentration at 0.083 hr (ng/mL)

>>> df
                                   compound                metric_name  value_reported
0  CC(C)Cc1sc(Nc2ncc(-c3cccs3)cc2C(=O)O)nc1C(C)(C)C [Compound I-11]  concentration at 0.083 hr             188

====

Experiment: Pharmacokinetic studies of certain compounds in female Balb/c mice (Example 5)
Assay type: in vivo
Settings: female, Balb/c, mouse, plasma, po, 100 mg/kg, I-2 PO 100 mg/kg, 0.25 hr, read-out: Plasma concentration Mean
Procedure: Pharmacokinetic studies were performed using Balb/c mice, 15-20 g, 6-9 weeks, female, N=9, purchased from Jihui Laboratory Animal Co. LTD. For compound I-29, Balb/c mice, 19-21 g, 9-11 weeks, female, N=9, were used. […] Plasma samples were analyzed using LC-MS using a calibration curve of known concentrations. The results of these studies are summarized in Tables 11-21 below and in FIGS. 2-8. […] BQL=below quantifiable limit for compound in female Balb/c mouse plasma samples. […]
Metric name: concentration at 0.25 h

>>> print(df.to_string())
                               entry_smiles              metric_name  value_reported
0  CC(C)Cc1sc(Nc2ncc(-c3cccs3)cc2C(=O)O)nc1C1=CCCCC1  concentration at 0.25 h      1520 ng/mL

====

Experiment: Pharmacokinetic studies of certain compounds in female Balb/c mice (Example 5)
Type: in vivo
Settings: female, Balb/c, mouse, plasma, po, 30 mg/kg, I-27 PO 30 mg/kg, 4 hr, read-out: Plasma concentration Mean
Metric name: concentration at 4 h (ng/mL)

In [3]: df
Out[3]:
                               entry_smiles  value_reported
0  CC(C)Cc1sc(Nc2ncc(-c3cccs3)cc2C(=O)O)nc1C1(C)CCCCC1            1990

====

Test: Pharmacokinetic studies of certain compounds in female Balb/c mice (Example 5)
Format: in vivo
Settings: mouse, plasma, I-2 PO 100 mg/kg
Metric name: Tmax

>>> print(df.to_string())
                                   compound  metric_name  value_reported
0  CC(C)Cc1sc(Nc2ncc(-c3cccs3)cc2C(=O)O)nc1C1=CCCCC1 [Compound I-2]         Tmax             2 h

====

Assay: Pharmacokinetic study of I-11 in female BALB/c mice (Example 4)
Type: in vivo, Balb/c mouse
Settings: female, BALB/c, mouse, plasma, iv, 5 mg/kg, IV 5 mg/kg, 2 hr, read-out: Plasma concentration Mean
Description: Pharmacokinetic Study in Female BALB/c Mice: Balb/c mouse, 17-19 g, 8-10 weeks, female, N=27, purchased from JH Laboratory Animal Co. LTD Fasted overnight and fed at 4 hr post dosing. Animals dosed with sampling at 0.083, 0.25, 0.5, 1, 2, 4, 8, 24 hr post dose. 8 time points. Semi-serial bleeding for plasma only. The animals were restrained manually at the designated time points. Approx. […] Plasma samples were analyzed for I-11 using LC-MS using a calibration curve of known concentrations. […]
Metric name: concentration at 2 hr (ng/mL)

>>> print(df.to_string())
                               entry_smiles            metric_name  value_reported
0  CC(C)Cc1sc(Nc2ncc(-c3cccs3)cc2C(=O)O)nc1C(C)(C)C  concentration at 2 hr             140

====

Test: Pharmacokinetic studies of certain compounds in female Balb/c mice (Example 5)
Type: in vivo
Settings: mouse, plasma, I-8 IV 1 mg/kg
Metric name: C0 (ng/mL)

In [3]: df
Out[3]:
                                   compound  value_reported
0  CC(C)Cc1sc(Nc2ncc(-c3cccs3)cc2C(=O)O)nc1C1=CCCC1 [Compound I-8]            2850

====

Assay: Pharmacokinetic studies of certain compounds in female Balb/c mice (Example 5)
Type: in vivo
Conditions: female, Balb/c, mouse, plasma, po, 23.8 mg/kg, I-29 PO 23.8 mg/kg, 0.25 hr, read-out: Plasma concentration Individual
Metric name: concentration at 0.25 hr (ng/mL)

>>> df
                                   compound  value_unit  value_reported
0  CC(C)Cc1sc(Nc2ncc(-c3cccs3)cc2C(=O)O)nc1C1CCC(F)(F)CC1 [Compound I-29]       ng/mL             160

====

Assay: Pharmacokinetic studies of certain compounds in female Balb/c mice (Example 5)
Format: in vivo
Conditions: female, BALB/c, mouse, plasma, po, 30 mg/kg, I-2 PO 30 mg/kg, 1 hr, read-out: Plasma concentration Mean
Description: Pharmacokinetic studies were performed using Balb/c mice, 15-20 g, 6-9 weeks, female, N=9, purchased from Jihui Laboratory Animal Co. LTD. For compound I-29, Balb/c mice, 19-21 g, 9-11 weeks, female, N=9, were used. […] Plasma samples were analyzed using LC-MS using a calibration curve of known concentrations. The results of these studies are summarized in Tables 11-21 below and in FIGS. 2-8. […] BQL=below quantifiable limit for compound in female Balb/c mouse plasma samples. […]
Metric name: concentration at 1 hr (ng/mL)

>>> df
                                   compound  value_reported
0  CC(C)Cc1sc(Nc2ncc(-c3cccs3)cc2C(=O)O)nc1C1=CCCCC1 [Compound I-2]            1800

====

Assay: Pharmacokinetic study of I-11 in female BALB/c mice (Example 4)
Type: in vivo, Balb/c mouse
Conditions: mouse, plasma, PO 50 mg/kg
Metric name: Tmax (h)

In [3]: df
Out[3]:
                                   molecule  metric_name  value_reported
0  CC(C)Cc1sc(Nc2ncc(-c3cccs3)cc2C(=O)O)nc1C(C)(C)C [Compound I-11]         Tmax               1
